Attribution: ChEMBL document CHEMBL4339253

# System: Cryptococcus neoformans
# Experimental Details: Antimicrobial activity against Cryptococcus neoformans ATCC 90113 assessed as inhibition of microbial growth up to 20 ug/mL by CLSI based method
# Type: functional, organism-based
Calls of active or inactive are those of the source. The rule behind the calls is not given here.
Attribute Measured: growth inhibition (GI)

• CC1=CC(O)=C2C(=O)c3c(O[C@@H]4O[C@H](CO)[C@@H](O)[C@H](O)[C@H]4O)cccc3C(c3ccc4c(c3O)C(=O)c3c(O)cc(C)cc3C4(O)[C@@H]3O[C@@H](C)[C@H](O)[C@@H](O)[C@H]3O)=C2C1=O (stereo partly drawn) = inactive
• COc1cc(OC)c(C2=C3C(=O)C(C)=CC(O)=C3C(=O)c3c(O)cccc32)c(O)c1C(C)=O = inactive
• COc1cc(O)c2c(c1)C(=O)c1cc(O[C@@H]3O[C@H](CO)[C@@H](O)[C@H](O)[C@H]3O)c(C(=O)O)c(C)c1C2=O = inactive

* * *

Exercise: state measured IC50 for each of the compounds provided.
# Tested on: Cryptococcus neoformans
# Experimental Details: Antimicrobial activity against Cryptococcus neoformans ATCC 90113 assessed as inhibition of microbial growth by CLSI based method
# Format: functional, organism-based

Memo: OC(Cn1cncn1)(Cn1cncn1)c1ccc(F)cc1F , reported IC50: 5 µM

Reported IC50 of Cc1cc(O)c2c(c1)C(O)([C@@H]1O[C@@H](C)[C@H](O)[C@@H](O)[C@H]1O)c1ccc([C@H]3c4cccc(O)c4C(=O)c4c(O)cc(C)c(O)c43)c(O)c1C2=O (some centres not stated) : > 30 µM

Documented IC50 of CN[C@H](CC(C)C)C(=O)N[C@H]1C(=O)N[C@@H](CC(N)=O)C(=O)N[C@H]2C(=O)N[C@H]3C(=O)N[C@H](C(=O)N[C@H](C(=O)O)c4cc(O)cc(O)c4-c4cc3ccc4O)[C@H](O)c3ccc(c(Cl)c3)Oc3cc2cc(c3O[C@@H]2O[C@H](CO)[C@@H](O)[C@H](O)[C@H]2O[C@H]2C[C@](C)(N)[C@H](O)[C@H](C)O2)Oc2ccc(cc2Cl)[C@H]1O : > 70 µM

The recorded IC50 for COc1cccc(OC)c1C(=O)N[C@@H]1C(=O)N2[C@@H]1SC(C)(C)[C@@H]2C(=O)O is > 300 µM

// recorded IC50 for C[C@@H]1[C@H](O)[C@@H](C)/C=C/C=C/C=C/C=C/C=C/C=C/C=C/[C@H](O[C@@H]2O[C@H](C)[C@@H](O)[C@H](N)[C@@H]2O)C[C@@H]2O[C@](O)(C[C@@H](O)C[C@@H](O)[C@H](O)CC[C@@H](O)C[C@@H](O)CC(=O)O[C@H]1C)C[C@H](O)[C@H]2C(=O)O : 0.2 µM

IC50 recorded for this compound, C[C@@H](O)[C@H]1C(=O)N2C(C(=O)O)=C(S[C@@H]3CN[C@H](C(=O)N(C)C)C3)[C@H](C)[C@H]12 , is > 300 µM

Per the records, this compound ( CO/N=C(\C(=O)N[C@@H]1C(=O)N2C(C(=O)O)=C(COC(C)=O)CS[C@H]12)c1csc(N)n1 ) has IC50 equal to > 200 µM
